Reference for the values: paper PMC3630172

Test system: GST-rPfPuf2 (Plasmodium falciparum)
METHOD_DESCRIPTION: EMSA
EXPERIMENTAL_SETUP: LightShift RNA EMSA binding buffer (salt, pH not given), 5% glycerol, 2 ug tRNA per 20 ul, RNase inhibitor, 2.5 nM RNA, 0.25-400 nM rPfPuf2, room temperature …
RECORDED_METRIC: Kd (nM)

> print(dat)
                              sequence.code  assay.result
1  UUCUCAUUUCCUAAUAAAUUGUUGUGAAAACAA [pfs25 RNA1M]           169
2  GAAAUGUUCUUUUGUAAUUAUAUUUUGUUCGAUGAUUC [pfs28 RNA1]           6.7
3  UUCUCAUUUGUUAAUAAAUUGUUGUGAAAACAA [pfs25 RNA1]          11.5
4  GAAAUGUUCUUUUCCAAUUAUAUUUUGUUCGAUGAUUC [pfs28 RNA1M]           143
